# TARGET_OR_TEST_SYSTEM: 인간 CD47 단백질 (Human CD47, SPR analyte) (human, UniProt Q08722 19-139, limits assumed)
# Sequence (Q08722 19-139 limits assumed): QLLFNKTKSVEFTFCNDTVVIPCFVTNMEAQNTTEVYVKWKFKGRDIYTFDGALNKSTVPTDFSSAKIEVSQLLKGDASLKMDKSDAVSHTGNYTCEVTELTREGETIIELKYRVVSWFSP
# TEST: SPR, Biacore 8K, antibody captured, human CD47 as analyte
pKd values by entry
Scale: pKd equals -log10([C]), with [C] in mol/L.

Some binders with known pKd results, for comparison:
[[record]]
binder = "Hu3A5V10 전장 항체 (full length antibody, IgG4) (antibody, V domains shown, also called U822EGG010-Hu3A5V10) VH: EVQLVQSGSELKKPGASVKVSCKASGYTFTSYWMHWMRQAPGQGLEWIGVIDPSDSYTSYNQGFTGRFVLSVDTSVSTAYLQISSLKAEDTAVYYCARGGKRAMDYWGQGTTVTVSS VL: DVVMTQSPLSLPVTLGQPASISCRSSQSLVHSNGNTYLHWFQQRPGQSPRLLIYKVSNRFSGVPDRFSGSGSGTDFTLKISRVEAEDVGVYYCSQSTHVPFTFGGGTKLEIKR"
measured_attribute = "pKd"
reading = 9.33

[[record]]
binder = "AHF16312 전장 항체 (full length antibody, IgG4) (antibody, V domains shown, also called AHF16312 항체) VH: EVQLVQSGSELKKPGASVKVSCKASGYTFTSYWMHWMRQAPGQGLEWIGVIDPNDSYTSYNQGFTGRFVLSVDTSVSTAYLQISSLKAEDTAVYYCARGGKRIMDYWGQGTTVTVSS VL: DVVMTQSPLSLPVTLGQPASISCRSSQSLVHSNGNTYLNWFQQRPGQSPRLLIYKVSNRFTGVPDRFSGSGSGTDFTLKISRVEAEDVGVYYCSQSTHVPFTFGGGTKLEIKR"
measured_attribute = "pKd"
reading = 9.78

[[record]]
binder = "AHF16310 전장 항체 (full length antibody, IgG4) (antibody, V domains shown, also called AHF16310 항체) VH: EVQLVQSGSELKKPGASVKVSCKASGYTFTSYWMHWMRQAPGQGLEWIGVIDPNDSYTSYNQGFTGRFVLSVDTSVSTAYLQISSLKAEDTAVYYCARGGKRMMDYWGQGTTVTVSS VL: DVVMTQSPLSLPVTLGQPASISCRSSQSLVHSNGNTYLHWFQQRPGQSPRLLIYKVSNRFTGVPDRFSGSGSGTDFTLKISRVEAEDVGVYYCSQSTHVPFTFGGGTKLEIKR"
measured_attribute = "pKd"
reading = 9.68


Per the records, this binder ( AHF16309 전장 항체 (full length antibody, IgG4) (antibody, V domains shown, also called AHF16309 항체) VH: EVQLVQSGSELKKPGASVKVSCKASGYTFTSYWMHWMRQAPGQGLEWIGVIDPNDSYTSYNQGFTGRFVLSVDTSVSTAYLQISSLKAEDTAVYYCARGGKRMMDYWGQGTTVTVSS VL: DVVMTQSPLSLPVTLGQPASISCRSSQSLVHSNGNTYLNWFQQRPGQSPRLLIYKVSNRFPGVPDRFSGSGSGTDFTLKISRVEAEDVGVYYCSQSTHVPFTFGGGTKLEIKR ) has pKd equal to 9.51
